Entries and their IC50
ASSAY_SYSTEM: BRM (Homo sapiens, UniProt P51531)
Sequence (P51531 whole entry): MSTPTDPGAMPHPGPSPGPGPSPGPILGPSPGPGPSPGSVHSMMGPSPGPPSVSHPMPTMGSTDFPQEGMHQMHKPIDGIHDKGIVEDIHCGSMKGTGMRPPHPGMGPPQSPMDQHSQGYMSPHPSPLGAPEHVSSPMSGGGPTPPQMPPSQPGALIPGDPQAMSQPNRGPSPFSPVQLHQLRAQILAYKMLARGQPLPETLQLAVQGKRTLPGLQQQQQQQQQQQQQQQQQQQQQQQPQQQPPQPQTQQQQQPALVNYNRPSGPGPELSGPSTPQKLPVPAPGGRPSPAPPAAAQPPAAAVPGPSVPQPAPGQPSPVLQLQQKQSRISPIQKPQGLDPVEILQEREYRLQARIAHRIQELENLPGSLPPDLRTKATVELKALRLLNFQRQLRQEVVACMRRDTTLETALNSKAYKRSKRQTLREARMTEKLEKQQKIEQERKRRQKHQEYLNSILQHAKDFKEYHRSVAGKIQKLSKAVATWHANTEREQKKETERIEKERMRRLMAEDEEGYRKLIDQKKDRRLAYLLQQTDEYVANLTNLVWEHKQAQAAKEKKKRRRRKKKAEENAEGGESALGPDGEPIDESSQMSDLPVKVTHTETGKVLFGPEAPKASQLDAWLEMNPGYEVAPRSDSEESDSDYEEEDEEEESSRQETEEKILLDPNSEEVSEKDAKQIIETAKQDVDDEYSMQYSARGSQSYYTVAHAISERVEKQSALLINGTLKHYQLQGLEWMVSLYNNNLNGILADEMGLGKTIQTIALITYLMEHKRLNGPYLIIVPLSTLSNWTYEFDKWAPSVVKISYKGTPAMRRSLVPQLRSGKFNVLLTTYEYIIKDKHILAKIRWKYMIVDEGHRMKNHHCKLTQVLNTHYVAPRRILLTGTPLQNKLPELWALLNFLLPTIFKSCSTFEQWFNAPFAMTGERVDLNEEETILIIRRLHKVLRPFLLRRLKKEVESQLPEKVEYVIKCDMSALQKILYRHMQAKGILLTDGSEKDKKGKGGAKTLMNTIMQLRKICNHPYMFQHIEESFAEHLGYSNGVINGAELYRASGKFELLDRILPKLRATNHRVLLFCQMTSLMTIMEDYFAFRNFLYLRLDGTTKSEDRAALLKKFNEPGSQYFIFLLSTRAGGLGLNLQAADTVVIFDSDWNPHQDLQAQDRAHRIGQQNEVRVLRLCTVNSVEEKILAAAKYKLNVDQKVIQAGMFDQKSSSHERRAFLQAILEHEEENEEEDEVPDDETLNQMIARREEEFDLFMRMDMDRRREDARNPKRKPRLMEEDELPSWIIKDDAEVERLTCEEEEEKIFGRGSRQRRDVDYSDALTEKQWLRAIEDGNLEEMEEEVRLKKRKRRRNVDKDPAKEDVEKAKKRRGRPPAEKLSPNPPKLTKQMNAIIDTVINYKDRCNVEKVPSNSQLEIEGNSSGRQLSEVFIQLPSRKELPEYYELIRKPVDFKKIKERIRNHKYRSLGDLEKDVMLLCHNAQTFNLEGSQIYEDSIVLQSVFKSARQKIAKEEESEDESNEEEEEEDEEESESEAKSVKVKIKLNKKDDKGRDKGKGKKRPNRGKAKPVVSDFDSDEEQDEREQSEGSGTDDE
TEST_NAME: ATPase catalytic activity assay of BRM (ADP-Glo)
Assay type: biochemical
EXPERIMENTAL_SETUP: read-out: BRM IC50 (μM)*

For orientation, consider the following solved cases.
C[C@@]1(CO)CCc2ccc(C(=O)NCC(=O)Nc3nc(-c4cccc(-c5cnccn5)n4)cs3)cc21	0.1 to 1 µM
O=C(CNC(=O)c1ccc2c(c1)[C@@](F)(C(F)F)COC2)Nc1nc(-c2cc(F)cc(N3CCC3)c2)cs1	< 0.1 µM
COc1cccc(-c2csc(NC(=O)CNC(=O)c3ccc4c(c3)[C@](C)(C#N)COC4)n2)c1F	< 0.1 µM
COC1CN(c2cccc(-c3csc(NC(=O)CNC(=O)c4ccc5c(c4)[C@](C)(C#N)COC5)n3)c2)C1	< 0.1 µM
COc1cccc(-c2csc(NC(=O)CNC(=O)c3cc(OC)c4c(c3)[C@](C)(C#N)COC4)n2)c1	0.1 to 1 µM
C[C@@]1(C#N)COCc2ccc(C(=O)NCC(=O)Nc3nc(-c4cccc([C@H]5CCO5)c4)cs3)cc21	< 0.1 µM

Now for a further molecule.
Inquiry: Hello, please tell me recorded IC50 for this one: `C[C@@]1(C#N)COCc2ccc(C(=O)NCC(=O)Nc3nc(-c4cccc([C@@H]5CC5(F)F)c4)cs3)cc21`
Reply text: < 0.1 µM

----------
ASSAY_SYSTEM: BRM (Homo sapiens, UniProt P51531)
TEST_NAME: ATPase catalytic activity assay of BRM (ADP-Glo)
Assay type: biochemical
Entries and their BRM Max % Inhibition

For orientation, consider the following solved cases.
COc1cccc(-c2csc(NC(=O)CNC(=O)c3cc(F)c4c(c3)C(C)(O)COC4)n2)c1 (stereo in doubt)	>90%
C[C@@H]1CN(c2cccc(-c3csc(NC(=O)CNC(=O)c4ccc5c(c4)C(C)(O)CCO5)n3)c2)C[C@H](C)O1 (stereo partly drawn)	>90%
CN1CC=Cc2ccc(C(=O)NCC(=O)Nc3nc(-c4cccc(-c5ccncc5)c4)cs3)cc2S1(=O)=O	>60%
C[C@@]1(C#N)COCc2ccc(C(=O)NCC(=O)Nc3nc(-c4cccc([C@@H]5CC5(F)F)c4)cs3)cc21	>95%
C[C@@H]1CN(c2cccc(-c3csc(NC(=O)CNC(=O)c4ccc5c(c4)[C@@]4(CCO4)COC5)n3)n2)C[C@H](C)O1	>95%
COc1cc(-c2csc(NC(=O)CNC(=O)c3ccc4c(c3)[C@](C)(C#N)COC4)n2)ccc1F	>95%

Now for a further compound.
Inquiry: Hello, please tell me recorded BRM Max % Inhibition for this one: `C[C@@H]1CN(c2cccc(-c3csc(NC(=O)CNC(=O)c4cc(C(C)(C)CO)ccc4F)n3)n2)C[C@H](C)O1`
Reply text: >90%

----------
ASSAY_SYSTEM: BRG-1 (Homo sapiens)
Sequence (P51532 whole entry): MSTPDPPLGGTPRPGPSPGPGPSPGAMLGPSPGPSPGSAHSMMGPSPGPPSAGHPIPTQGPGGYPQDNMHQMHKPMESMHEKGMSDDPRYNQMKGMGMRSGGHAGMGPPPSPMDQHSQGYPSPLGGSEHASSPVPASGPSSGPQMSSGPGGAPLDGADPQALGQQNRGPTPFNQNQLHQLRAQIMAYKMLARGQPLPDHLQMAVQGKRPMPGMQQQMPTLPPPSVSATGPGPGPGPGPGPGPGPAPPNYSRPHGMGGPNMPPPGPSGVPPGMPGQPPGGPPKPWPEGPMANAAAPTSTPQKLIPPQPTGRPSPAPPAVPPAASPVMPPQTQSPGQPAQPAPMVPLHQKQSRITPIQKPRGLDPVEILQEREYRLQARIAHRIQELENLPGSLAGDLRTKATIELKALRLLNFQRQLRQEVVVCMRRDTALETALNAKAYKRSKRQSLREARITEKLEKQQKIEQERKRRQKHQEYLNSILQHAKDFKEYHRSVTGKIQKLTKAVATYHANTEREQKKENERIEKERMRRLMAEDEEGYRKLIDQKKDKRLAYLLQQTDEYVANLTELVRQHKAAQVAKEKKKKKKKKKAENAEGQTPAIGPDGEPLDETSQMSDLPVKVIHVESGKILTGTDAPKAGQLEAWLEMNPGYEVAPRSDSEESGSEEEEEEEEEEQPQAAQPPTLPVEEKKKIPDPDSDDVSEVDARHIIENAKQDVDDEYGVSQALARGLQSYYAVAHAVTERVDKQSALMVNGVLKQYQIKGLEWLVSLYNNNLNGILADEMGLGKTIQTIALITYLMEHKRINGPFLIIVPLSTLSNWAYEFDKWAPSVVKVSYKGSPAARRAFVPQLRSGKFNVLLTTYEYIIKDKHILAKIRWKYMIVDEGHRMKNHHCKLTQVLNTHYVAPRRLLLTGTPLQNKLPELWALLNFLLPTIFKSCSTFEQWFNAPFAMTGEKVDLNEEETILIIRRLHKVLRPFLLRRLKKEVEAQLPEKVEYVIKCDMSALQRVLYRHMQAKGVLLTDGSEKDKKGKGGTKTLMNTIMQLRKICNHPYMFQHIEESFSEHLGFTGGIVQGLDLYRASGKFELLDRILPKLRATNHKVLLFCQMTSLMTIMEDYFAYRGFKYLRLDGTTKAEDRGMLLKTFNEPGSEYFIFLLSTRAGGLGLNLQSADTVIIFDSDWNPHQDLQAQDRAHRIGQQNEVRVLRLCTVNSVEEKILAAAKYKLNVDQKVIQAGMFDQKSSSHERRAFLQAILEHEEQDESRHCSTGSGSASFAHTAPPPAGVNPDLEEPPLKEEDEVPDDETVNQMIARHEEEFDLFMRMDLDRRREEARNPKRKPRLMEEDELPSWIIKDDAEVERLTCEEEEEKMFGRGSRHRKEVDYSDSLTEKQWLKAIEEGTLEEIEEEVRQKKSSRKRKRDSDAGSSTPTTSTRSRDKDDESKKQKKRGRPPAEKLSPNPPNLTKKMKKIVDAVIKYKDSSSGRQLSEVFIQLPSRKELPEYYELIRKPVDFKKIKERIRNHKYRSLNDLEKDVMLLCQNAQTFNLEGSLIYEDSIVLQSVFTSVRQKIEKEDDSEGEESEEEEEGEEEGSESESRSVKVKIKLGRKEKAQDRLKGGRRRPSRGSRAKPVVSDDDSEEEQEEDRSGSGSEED
TEST_NAME: ATPase catalytic activity assay of BRG-1 (ADP-Glo)
Type: biochemical
EXPERIMENTAL_SETUP: ATPase catalytic activity, ADP-Glo; read-out: BRG1 IC50 (μM)*
Entries and their IC50

CC1(C#N)CCc2ccc(C(=O)NCC(=O)Nc3nc(-c4cccc(-c5ccncc5)c4)cs3)cc21 (single isomer, unassigned) [Compound 88]	> 5 µM

Now for a further compound.
Inquiry: Hello, please tell me recorded IC50 for this one: CCS1(=O)=NCc2ccc(C(=O)NCC(=O)Nc3nc(-c4cccc(N5C[C@@H](C)O[C@@H](C)C5)c4)cs3)cc21 (some centres unmarked) [Compound 367]
Reply text: 1 to 5 µM

----------
ASSAY_SYSTEM: BRG-1 (Homo sapiens)
TEST_NAME: ATPase catalytic activity assay of BRG-1 (ADP-Glo)
Format: biochemical
EXPERIMENTAL_SETUP: ATPase catalytic activity, ADP-Glo; read-out: BRG1 IC50 (μM)*
EXPERIMENTAL_READOUT: IC50

For orientation, consider the following solved cases.
C[C@@]1(C#N)COCc2ccc(C(=O)NCC(=O)Nc3nc(-c4cccc([C@@]56CCOC[C@@H]5C6)n4)cs3)cc21 [Compound 292]	0.1 to 1 µM
CC(C)S(=O)(=O)c1cccc(C(=O)NCC(=O)Nc2nc(-c3cccc(N4C[C@@H](C)O[C@@H](C)C4)c3)cs2)c1 [Compound 14]	0.1 to 1 µM
Cc1cncc(-c2cccc(-c3csc(NC(=O)CNC(=O)c4ccc5c(c4)[C@](C)(CO)CC5)n3)n2)n1 [Compound 163]	1 to 5 µM
Cn1cnc2ccc(-c3csc(NC(=O)CNC(=O)c4ccc5c(c4)[C@@](C)(CO)CC5)n3)cc21 [Compound 257]	> 5 µM
CC(=O)N1CC(c2cccc(-c3csc(NC(=O)CNC(=O)c4ccc5c(c4)[C@](C)(C#N)COC5)n3)c2)C1 [Compound 379]	0.1 to 1 µM

Inquiry: Hello, please tell me recorded IC50 for this one: COc1nccc(-c2cccc(-c3csc(NC(=O)CNC(=O)c4cccc(S(=O)(=O)C(C)C)c4)n3)n2)n1 [Compound 119]
Reply text: 0.1 to 1 µM

Inquiry: Hello, please tell me recorded IC50 for this one: CC(C)(CO)c1cccc(C(=O)NCC(=O)Nc2nc(-c3cccc(C#N)c3)cs2)c1 [Compound 106]
Reply text: 1 to 5 µM

Inquiry: Hello, please tell me recorded IC50 for this one: COC(=O)N1CCCC(c2csc(NC(=O)CNC(=O)c3ccc4c(c3)[C@](C)(F)COC4)n2)C1 (stereo in doubt) [Compound 302]
Reply text: 0.1 to 1 µM

Inquiry: Hello, please tell me recorded IC50 for this one: COc1cccc(-c2csc(NC(=O)CNC(=O)c3cc(OC)c4c(c3)[C@](C)(C#N)COC4)n2)c1 [Compound 335]
Reply text: > 5 µM

Inquiry: Hello, please tell me recorded IC50 for this one: C[C@@H]1CN(c2cccc(-c3csc(NC(=O)CNC(=O)c4ccc5c(c4)[C@@]4(CCC[C@@H]4O)CC5)n3)c2)C[C@H](C)O1 [Compound 186]
Reply text: 1 to 5 µM

Inquiry: Hello, please tell me recorded IC50 for this one: C[C@@H]1CN(c2cccc(-c3csc(NC(=O)CNC(=O)c4cccc([C@]5(C(F)F)CCCO5)c4)n3)c2)C[C@H](C)O1 [Compound 291]
Reply text: > 5 µM

Inquiry: Hello, please tell me recorded IC50 for this one: C[C@@H]1CN(c2cccc(-c3csc(NC(=O)CNC(=O)c4ccc5c(c4)S(=O)(=O)CCC5)n3)c2)C[C@H](C)O1 [Compound 396]
Reply text: 1 to 5 µM

----------
ASSAY_SYSTEM: BRG-1 (Homo sapiens)
TEST_NAME: ATPase catalytic activity assay of BRG-1 (ADP-Glo)
Format: biochemical
EXPERIMENTAL_SETUP: ATPase catalytic activity, ADP-Glo; read-out: BRG1 Max % Inhibition
EXPERIMENTAL_READOUT: Emax

For orientation, consider the following solved cases.
C[C@H](CO)S(=O)(=O)c1cccc(C(=O)NCC(=O)Nc2nc(-c3cccc(-c4ccncc4)c3)cs2)c1	> 40%
Cc1nccc(-c2cccc(-c3csc(NC(=O)CNC(=O)c4ccc5c(c4)[C@@](C)(CO)CCC5)n3)n2)n1	> 40%
C[C@@H]1CN(c2cccc(-c3csc(NC(=O)CNC(=O)c4ccc5c(c4)[C@](C)(CO)CCO5)n3)c2)C[C@H](C)O1	< 40%
C[C@@H]1CN(c2cccc(-c3csc(NC(=O)CNC(=O)c4cccc(C5(CO)CC5)c4)n3)n2)C[C@H](C)O1	> 90%
C[C@@]1(C#N)COCc2ccc(C(=O)NC3(C(=O)Nc4nc(-c5cccc(C(F)F)c5)cs4)CC3)cc21	> 75%

Inquiry: Hello, please tell me recorded Emax for this one: `Cc1nccc(-c2cccc(-c3csc(NC(=O)CNC(=O)c4cccc(C(C)(C)CN)c4)n3)c2)n1`
Reply text: > 90%

Inquiry: Hello, please tell me recorded Emax for this one: `Cc1cncc(-c2cccc(-c3csc(NC(=O)CNC(=O)c4ccc5c(c4)[C@@](C)(CO)CC5)n3)n2)n1`
Reply text: < 30%

----------
Entries and their IC50
ASSAY_SYSTEM: BRM (Homo sapiens)
TEST_NAME: ATPase catalytic activity assay of BRM (ADP-Glo)
Type: biochemical
EXPERIMENTAL_SETUP: read-out: BRM IC50 (μM)*

For orientation, consider the following solved cases.
CC(C)S(=O)(=O)c1cccc(C(=O)NCC(=O)Nc2nc(-c3cccc(-c4cccc(C#N)n4)n3)cs2)c1	0.1 to 1 µM
C[C@@H]1CN(c2cccc(-c3csc(NC(=O)CNC(=O)c4ccc5c(c4)[C@@](C)(CO)CN5C)n3)c2)C[C@H](C)O1	0.1 to 1 µM
C[C@@H]1CN(c2cccc(-c3csc(NC(=O)CNC(=O)c4ccc5c(c4)C(C)(C#N)OCC5)n3)n2)C[C@H](C)O1 (some centres unmarked)	0.1 to 1 µM
CC(C)(C(N)=O)c1cccc(C(=O)NCC(=O)Nc2nc(-c3cccc(-c4ccncc4)c3)cs2)c1	0.1 to 1 µM
C[C@@H]1CN(c2cccc(-c3csc(NC(=O)CNC(=O)c4cccc(C5(F)COCC5O)c4)n3)n2)C[C@H](C)O1 (some centres unmarked)	0.1 to 1 µM

Inquiry: Hello, please tell me recorded IC50 for this one: `C[C@@]1(CO)CCc2c(C(=O)NCC(=O)Nc3nc(-c4cccc(-c5ccncc5)c4)cs3)cccc21`
Reply text: 1 to 5 µM

Inquiry: Hello, please tell me recorded IC50 for this one: `C[C@@]1(C#N)COCc2ccc(C(=O)NCC(=O)Nc3nc(-c4cccc([C@@]56CCOC[C@@H]5C6)c4)cs3)cc21`
Reply text: < 0.1 µM

Inquiry: Hello, please tell me recorded IC50 for this one: `C[C@@H]1CN(c2cccc(-c3csc(NC(=O)CNC(=O)c4ccc5c(c4)CCCO5)n3)n2)C[C@H](C)O1`
Reply text: 0.1 to 1 µM
